# TARGET: Glutamate receptor ionotropic, NMDA 1 (Rattus norvegicus, UniProt P35439)
# METHOD: Inhibition of [3H]-3 binding to the glycine site on the NMDA receptor in Rat cortical membranes
READOUT_NAME: IC50 (nM)
Write it as a number; the unit nM goes unstated.

Bench note: what IC50 did O=c1[nH]c2ccccc2c2c(=O)n(-c3ccccc3Cl)[nH]c12 show?
613

Bench note: what IC50 did O=c1[nH]c2ccccc2c2c(=O)n(-c3ccccc3)[nH]c12 show?
135

Bench note: what IC50 did Cn1[nH]c2c(=O)[nH]c3ccccc3c2c1=O show?
2020

Bench note: what IC50 did O=c1[nH]c2ccccc2c2c(=O)n(Cc3ccccc3)[nH]c12 show?
562

Bench note: what IC50 did O=c1[nH]c2cc(Cl)ccc2c2c(=O)n(-c3ccccc3)[nH]c12 show?
16

Bench note: what IC50 did O=c1[nH]c2ccccc2c2c(=O)n(-c3cccc(Cl)c3)[nH]c12 show?
162

Bench note: what IC50 did O=c1[nH]c2ccccc2c2c(=O)n(-c3ccc(Cl)cc3)[nH]c12 show?
138

Bench note: what IC50 did COc1ccc(-n2[nH]c3c(=O)[nH]c4cc(Cl)ccc4c3c2=O)cc1 show?
3.3

Bench note: what IC50 did COc1ccc(-n2[nH]c3c(=O)[nH]c4ccccc4c3c2=O)cc1 show?
87

All values here come from ChEMBL document CHEMBL1128683.
